Reference source for all entries: ChEMBL document CHEMBL4177524

tested on: Hepatitis B virus; assay: Antiviral activity against lamivudine-resistant hepatitis B virus harboring reverse transcriptase M204I/V173L double mutant infected in human Huh7 cells assessed as reduction in secreted DNA levels measured on day 7 by real-time PCR analysis; type: functional, organism-based; conditions: Huh-7, 168 h
Parameter: EC50

For Nc1ccn([C@@H]2CS[C@H](CO)O2)c(=O)n1 the compound record lists EC50 as > 20 µM

###

system: Hepatitis B virus; assay: Antiviral activity against entecavir-resistant hepatitis B virus harboring reverse transcriptase M204I/S202G/M250V triple mutant infected in human Huh7 cells assessed as reduction in secreted DNA levels measured on day 7 by real-time PCR analysis; type: functional, organism-based; conditions: Huh-7, 168 h
Parameter: EC50

EC50 recorded for this molecule, C=C1[C@H](CO)[C@@H](O)C[C@@H]1n1cnc2c(=O)[nH]c(N)nc21 , is > 20 µM

###

assay: Half life in beagle dog at 5 mg/kg, iv by LC/MS/MS analysis; settings: in vivo
Parameter: half-life
Quick note: number first, unit second.

Please fill in: half-life reported for CCOC(=O)C1=C(CN2CCOCC2)NC(c2nccs2)=NC1c1ccc(F)cc1Br (stereo unspecified) = 9.85 h

###

assay: AUC (0 to 24 hrs) in beagle dog at 5 mg/kg, iv by LC/MS/MS analysis; format: ADME, organism-based, Canis lupus familiaris; set-up: dose 5 mg/kg, time < 24 hr, route intravenous; settings: in vivo
Parameter: AUC(0-t) at 24 h (ng·h/mL)
Entry rule: numbers only, all in ng·h/mL.

So for CCOC(=O)C1=C(CN2CCOCC2)NC(c2nccs2)=NC1c1ccc(F)cc1Br (stereo unspecified) , the logged AUC(0-t) at 24 h turned out to be 4350

###

experiment: in vivo; conditions: beagle, dog, po, 15 mg/kg
Description: Half life in beagle dog at 15 mg/kg, po by LC/MS/MS analysis
Parameter: half-life (h)
API: value field is a number in h; no unit string.

Form: compound = CCOC(=O)C1=C(CN2CCOCC2)NC(c2nccs2)=NC1c1ccc(F)cc1Br (stereo unspecified) ; half-life = 7.32

###

For each record, write down the corresponding CC50 at 120 h.
assay: Cytotoxicity in human HepG2.215 cells assessed as reduction in cell viability after 5 days by CCK8 assay; format: cell-based, HepG2 2.2.15; conditions: HepG2.2.15 cells
Report the value in µM with no unit label.

Lookup result for Nc1ccn([C@@H]2CS[C@H](CO)O2)c(=O)n1 [LAMIVUDINE] ; measured CC50 at 120 h: 1020

Lookup result for C[C@H](Cn1cnc2c(N)ncnc21)OCP(=O)(O)O [TENOFOVIR ANHYDROUS] ; measured CC50 at 120 h: 399

Entry C=C1[C@H](CO)[C@@H](O)C[C@@H]1n1cnc2c(=O)[nH]c(N)nc21 ; CC50 at 120 h = 30

Note to self: CC50 at 120 h recorded for Nc1ncnc2c1ncn2CCOCP(=O)(O)O [ADEFOVIR] was 200

###

assay: Half life in beagle dog at 5 mg/kg, po by LC/MS/MS analysis; details: in vivo
Parameter: half-life (h)
Supply the numeric figure in h, leaving out any unit text.

The molecule listed as CCOC(=O)C1=C(CN2CCOCC2)NC(c2nccs2)=NC1c1ccc(F)cc1Br (stereo unspecified) has a reported half-life of 6.91
